System: Phakopsora pachyrhizi containing the amino acid substitution F129L in the mitochondrial cytochrome b protein
experimental_details: Use Example 1: protective control of soybean rust on soybeans (PHAKPA P2)
Format: in vivo
condition_description: inoculated 2 days after spraying, 4 ppm, % diseased leaf area
% PHAKPA (F129L) Disease level P2 at 4 ppm for assorted compounds
parameter: % PHAKPA (F129L) Disease level P2 at 4 ppm (%)

compound: CCOC/C(=N\OCc1c(Cl)cccc1/C(=N\OC)C(=O)NC)c1cccc(F)c1 [compound 42]
endpoint_result: 11
--
compound: CCOC/C(=N\OCc1c(Cl)cccc1/C(=C\OC)C(=O)OC)c1cccc(Cl)c1 [compound 38]
endpoint_result: 23
--
compound: CNC(=O)/C(=N/OC)c1cccc(Cl)c1CO/N=C(\COC)c1ccc(Cl)cc1 [compound 36]
endpoint_result: 65
--
compound: CCOC/C(=N\OCc1c(Cl)cccc1/C(=N\OC)C(=O)OC)c1ccccc1 [compound 53]
endpoint_result: 88
--
compound: CNC(=O)/C(=N/OC)c1cccc(Cl)c1CO/N=C(\COC)c1cc(F)cc(F)c1 [compound 86]
endpoint_result: 17
--
compound: CNC(=O)/C(=N/OC)c1cccc(Cl)c1CO/N=C(\COC)c1c(F)cc(F)cc1F [compound 31]
endpoint_result: 0
--
compound: COC/C(=N\OCc1c(Cl)cccc1/C(=N\OC)C(=O)OC)c1cc(Cl)ccc1F [compound 103]
endpoint_result: 72
--
compound: CO/C=C(/C(=O)OC)c1cccc(Cl)c1CO/N=C(\COC)c1ccc(F)cc1Cl [compound 93]
endpoint_result: 13
--
compound: CNC(=O)/C(=N/OC)c1cccc(Cl)c1CO/N=C(\COC)c1ccc(F)c(F)c1 [compound 97]
endpoint_result: 3

----------
Below, each entry is listed alongside its reported % PUCCRT Disease level P7 at 4 ppm.
System: Puccinia recondita
experimental_details: Use Example 4: preventative control of brown rust on wheat (PUCCRT P7)
Type: in vivo
condition_description: inoculated seven days after spraying, 4 ppm, % diseased leaf area
parameter: % PUCCRT Disease level P7 at 4 ppm (%)

structure_smiles: CNC(=O)/C(=N/OC)c1cccc(Cl)c1CO/N=C(\COC)c1cc(Cl)ccc1F
experimental_system: Puccinia recondita
parameter: % PUCCRT Disease level P7 at 4 ppm
endpoint_result: 41

structure_smiles: CCOC/C(=N\OCc1c(Cl)cccc1/C(=N\OC)C(=O)NC)c1ccccc1
experimental_system: Puccinia recondita
parameter: % PUCCRT Disease level P7 at 4 ppm
endpoint_result: 53

structure_smiles: CNC(=O)/C(=N/OC)c1cccc(Cl)c1CO/N=C(\COC)c1cc(F)cc(F)c1
experimental_system: Puccinia recondita
parameter: % PUCCRT Disease level P7 at 4 ppm
endpoint_result: 19

structure_smiles: CNC(=O)/C(=N/OC)c1cccc(Cl)c1CO/N=C(\COC)c1ccc(F)cc1F
experimental_system: Puccinia recondita
parameter: % PUCCRT Disease level P7 at 4 ppm
endpoint_result: 35

structure_smiles: CNC(=O)/C(=N/OC)c1cccc(Cl)c1CO/N=C(\COC)c1ccc(F)cc1Cl
experimental_system: Puccinia recondita
parameter: % PUCCRT Disease level P7 at 4 ppm
endpoint_result: 57

----------
Test system: Phakopsora pachyrhizi containing the amino acid substitution F129L in the mitochondrial cytochrome b protein
experimental_details: Use Example 1: protective control of soybean rust on soybeans (PHAKPA P2)
Format: in vivo
condition_description: inoculated 2 days after spraying, 4 ppm, % diseased leaf area
Procedure: The compound was dissolved in a mixture of acetone and/or dimethylsulfoxide and the wetting agent/emulsifier Wettol, which is based on ethoxylated alkylphenoles, in a ratio (volume) solvent-emulsifier of 99 to 1 to give a total volume of 5 ml. Subsequently, water was added to total volume of 100 ml. This stock solution was then diluted with the described solvent-emulsifier-water mixture to the final concentration given in the tables below. Use Example 1. […]
# Lookup of reported % PHAKPA (F129L) Disease level P2 at 4 ppm keyed by entry
parameter: % PHAKPA (F129L) Disease level P2 at 4 ppm (%)

structure_smiles: CO/C=C(/C(=O)OC)c1cccc(Br)c1CO/N=C(\COC)c1ccccc1
endpoint_result: 0
//
structure_smiles: CNC(=O)/C(=N/OC)c1cccc(Cl)c1CO/N=C(\COC)c1cccc(Cl)c1F
endpoint_result: 21
//
structure_smiles: CCOC/C(=N\OCc1c(Cl)cccc1/C(=N\OC)C(=O)NC)c1cccc(Cl)c1
endpoint_result: 15
//
structure_smiles: CCOC/C(=N\OCc1c(Cl)cccc1/C(=N\OC)C(=O)NC)c1ccccc1
endpoint_result: 37
//
structure_smiles: CNC(=O)/C(=N/OC)c1cccc(Cl)c1CO/N=C(\COC)c1cccc(C)c1
endpoint_result: 21
//
structure_smiles: CNC(=O)/C(=N/OC)c1cccc(Cl)c1CO/N=C(\COC)c1cccc(C(F)(F)F)c1
endpoint_result: 15
//
structure_smiles: CNC(=O)/C(=N/OC)c1cccc(Cl)c1CO/N=C(\COC)c1ccc(F)c(F)c1F
endpoint_result: 21
//
structure_smiles: COC/C(=N\OCc1c(Cl)cccc1/C(=N\OC)C(=O)OC)c1ccccc1F
endpoint_result: 33
